B1: SMG5 (parent)
chain: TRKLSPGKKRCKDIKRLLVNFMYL

Variants of: B1
Experiment: protein stability index of a GFP-peptide fusion (GPS, HEK-293T) (PSI 1-6); higher = more stable;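 further: lentivirally expressed fusions sorted by FACS into six bins by GFP to DsRed ratio, PSI derived from sequencing read proportions per bin multiplied by bin number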
Conditions: c terminus: a fixed tail appended
Kind request: treat 2 as inclusive, so protein stability index at 2 or higher is True, anything lower is False.

1) TRKLSPGKKRPKDIKRLLVNFMYL ... True
2) TRKLSPGKKRCKDIKRLLVNFYYL ... True
3) TRKLSPGKKRCKDIKRLLVNFMYA ... True
4) TRKLSPGKKRCKDIKRLPVNFMYL ... True
5) TRKLSPGKKKCKDIKRLLVNFMYL ... True
6) TRKLSPGKKRCKDWKRLLVNFMYL ... True
7) TRKLSPGKKRCKDIKILLVNFMYL ... True
8) TRKLSPGKKRCKDIKRLDVNFMYL ... False
9) TRKLSPGKKRCKDIKRLLVNFRYL ... True
10) TRKLSPGKKRCLDIKRLLVNFMYL ... True
11) TRKDSPGKKRCKDIKRLLVNFMYL ... False
12) TRKLSPGGKRCKDIKRLLVNFMYL ... False
13) TRKLQPGKKRCKDIKRLLVNFMYL ... True
14) TRKLSPGKKRCTDIKRLLVNFMYL ... True
15) TRKLSPGKKRCKDITRLLVNFMYL ... True
16) TRKLSPGKKRCKDIKRLLVNYMYL ... False
17) TRKLSPGKFRCKDIKRLLVNFMYL ... True
18) TRKLSPGKKRCKDIKRLSVNFMYL ... False
